Entries and their pIC50 values follow.
# system-under-test: Na/K-ATPase
# method-description: 3H-ouabain radioligand binding assay (RBA)
# condition-summary: 3H-ouabain radioligand binding assay (RBA)
Structures can show the parent of a compound that is named as a salt.
Field pIC50 (float): negative decimal logarithm of the concentration in molar.

CC1OC(OC2C(O)CC(OC3C(O)CC(OC4CCC5(C)C(CCC6C5CCC5(C)C(CN)CCC65O)C4)OC3C)OC2C)CC(O)C1O (stereo not shown) [Example 3]: 6.40
C[C@@H]1O[C@@H](O[C@H]2CC[C@@]3(C)[C@H](CC[C@@H]4[C@@H]3CC[C@]3(C)[C@@H](CN)CC[C@]43O)C2)[C@H](O)[C@H](O)[C@H]1O [Example 1, hydrochloride]: 7.22
C[C@@H]1O[C@@H](O[C@H]2CC[C@@]3(C)[C@H](CC[C@@H]4[C@@H]3CC[C@]3(C)[C@@H](C[N+](=O)[O-])CC[C@]43O)C2)[C@H](O)[C@H](O)[C@H]1O [Example 2]: 7.96

Could you share which pIC50 value was measured for CC1OC(OC2C(O)CC(OC3C(O)CC(OC4CCC5(C)C(CCC6C5CCC5(C)C(C[N+](=O)[O-])CCC65O)C4)OC3C)OC2C)CC(O)C1O (stereo not shown) [Example 4] ? 7.22
